B1: ANKRD44 (parent)
chain: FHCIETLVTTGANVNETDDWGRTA

Variants of: B1
Experiment: protein stability index of a GFP-peptide fusion (GPS, HEK-293T) (PSI 1-6); higher = more stable;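 note: lentivirally expressed fusions sorted by FACS into six bins by GFP to DsRed ratio, PSI derived from sequencing read proportions per bin multiplied by bin number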
Settings: c terminus: a fixed tail appended
ASSAY_ENDPOINT: protein stability index
API doc: respond with a numeric literal and nothing else, no unit.

What value of protein stability index has been recorded for this entry: "E5S" 1.92

What value of protein stability index has been recorded for this entry: "T23F" 2.06

What value of protein stability index has been recorded for this entry: "H2P" 3.77

What value of protein stability index has been recorded for this entry: "I4K" 2.11

What value of protein stability index has been recorded for this entry: "W20V" 2.77

What value of protein stability index has been recorded for this entry: "L7G" 2.42

What value of protein stability index has been recorded for this entry: "E16M" 1.56

What value of protein stability index has been recorded for this entry: "G21Q" 2.21

What value of protein stability index has been recorded for this entry: "G21T" 2.25

What value of protein stability index has been recorded for this entry: "T23A" 2.27

What value of protein stability index has been recorded for this entry: "W20K" 3.03

What value of protein stability index has been recorded for this entry: "W20L" 3.26

What value of protein stability index has been recorded for this entry: "C3E" 3.96

What value of protein stability index has been recorded for this entry: "W20H" 2.94

What value of protein stability index has been recorded for this entry: "T10W" 2.68

What value of protein stability index has been recorded for this entry: "D18N" 2.26

What value of protein stability index has been recorded for this entry: "T6H" 2.52

What value of protein stability index has been recorded for this entry: "D19T" 1.88

What value of protein stability index has been recorded for this entry: "H2G" 3.71

What value of protein stability index has been recorded for this entry: "I4S" 2.69

What value of protein stability index has been recorded for this entry: "T10Q" 2.63

What value of protein stability index has been recorded for this entry: "D18E" 2.09

What value of protein stability index has been recorded for this entry: "A12V" 1.59

What value of protein stability index has been recorded for this entry: "T9K" 2.83

What value of protein stability index has been recorded for this entry: "T9Y" 1.54

What value of protein stability index has been recorded for this entry: "W20C" 2.43

What value of protein stability index has been recorded for this entry: "T9F" 1.25

What value of protein stability index has been recorded for this entry: "T23D" 2.71

What value of protein stability index has been recorded for this entry: "G11K" 2.29

What value of protein stability index has been recorded for this entry: "V14K" 2.31

What value of protein stability index has been recorded for this entry: "F1G" 4.25

What value of protein stability index has been recorded for this entry: "R22W" 1.49

What value of protein stability index has been recorded for this entry: "A12T" 2.82

What value of protein stability index has been recorded for this entry: "V8T" 2.29

What value of protein stability index has been recorded for this entry: "T23Y" 1.83

What value of protein stability index has been recorded for this entry: "T10H" 2.08

What value of protein stability index has been recorded for this entry: "H2Y" 1.89

What value of protein stability index has been recorded for this entry: "D19A" 1.56

What value of protein stability index has been recorded for this entry: "A24L" 1.91

What value of protein stability index has been recorded for this entry: "A12L" 2.45

What value of protein stability index has been recorded for this entry: "R22C" 1.76

What value of protein stability index has been recorded for this entry: "N15Q" 2.18

What value of protein stability index has been recorded for this entry: "N13M" 1.5

What value of protein stability index has been recorded for this entry: "I4V" 2.44

What value of protein stability index has been recorded for this entry: "T17K" 2.02

What value of protein stability index has been recorded for this entry: "T23C" 1.87

What value of protein stability index has been recorded for this entry: "D19I" 3.48

What value of protein stability index has been recorded for this entry: "H2W" 1.68

What value of protein stability index has been recorded for this entry: "A12G" 1.52

What value of protein stability index has been recorded for this entry: "W20N" 3.23

What value of protein stability index has been recorded for this entry: "V14D" 2.26

What value of protein stability index has been recorded for this entry: "D19N" 1.75

What value of protein stability index has been recorded for this entry: "E16D" 2.17

What value of protein stability index has been recorded for this entry: "G11E" 2.94

What value of protein stability index has been recorded for this entry: "T9D" 3.26

What value of protein stability index has been recorded for this entry: "T9G" 2.7

What value of protein stability index has been recorded for this entry: "C3A" 1.79

What value of protein stability index has been recorded for this entry: "H2F" 1.8

What value of protein stability index has been recorded for this entry: "G21Y" 1.92

What value of protein stability index has been recorded for this entry: "T9E" 3.12

What value of protein stability index has been recorded for this entry: "A24P" 2.63

What value of protein stability index has been recorded for this entry: "R22E" 2.91

What value of protein stability index has been recorded for this entry: "A12H" 2.1

What value of protein stability index has been recorded for this entry: "H2T" 3.08

What value of protein stability index has been recorded for this entry: "N15S" 1.64

What value of protein stability index has been recorded for this entry: "V14W" 1.54

What value of protein stability index has been recorded for this entry: "D19V" 2.18

What value of protein stability index has been recorded for this entry: "N13I" 2.31

What value of protein stability index has been recorded for this entry: "A12D" 1.87

What value of protein stability index has been recorded for this entry: "A24E" 2.27

What value of protein stability index has been recorded for this entry: "E5N" 2.03

What value of protein stability index has been recorded for this entry: "F1M" 4.54

What value of protein stability index has been recorded for this entry: "N15A" 1.76

What value of protein stability index has been recorded for this entry: "D19W" 2.44

What value of protein stability index has been recorded for this entry: "T23S" 2.31

What value of protein stability index has been recorded for this entry: "W20E" 3.19

What value of protein stability index has been recorded for this entry: "R22T" 2.46

What value of protein stability index has been recorded for this entry: "T10E" 2.37

What value of protein stability index has been recorded for this entry: "E16A" 1.98

What value of protein stability index has been recorded for this entry: "V14H" 1.94

What value of protein stability index has been recorded for this entry: "G21S" 1.89

What value of protein stability index has been recorded for this entry: "A12K" 2.07

What value of protein stability index has been recorded for this entry: "I4C" 2.33

What value of protein stability index has been recorded for this entry: "H2R" 3.46

What value of protein stability index has been recorded for this entry: "E5A" 2.31

What value of protein stability index has been recorded for this entry: "D19C" 2.15

What value of protein stability index has been recorded for this entry: "C3K" 3.8

What value of protein stability index has been recorded for this entry: "W20G" 2.52

What value of protein stability index has been recorded for this entry: "N15Y" 1.96

What value of protein stability index has been recorded for this entry: "L7M" 2.19

What value of protein stability index has been recorded for this entry: "N13Q" 2.3
